system: human Farsenoid X Receptor ligand binding domain - GST fusion protein (GST-FXR LBD) (Homo sapiens)
Construct: Human FXR-LBD (amino acid 248-476)
Sequence (Q96RI1 258-486): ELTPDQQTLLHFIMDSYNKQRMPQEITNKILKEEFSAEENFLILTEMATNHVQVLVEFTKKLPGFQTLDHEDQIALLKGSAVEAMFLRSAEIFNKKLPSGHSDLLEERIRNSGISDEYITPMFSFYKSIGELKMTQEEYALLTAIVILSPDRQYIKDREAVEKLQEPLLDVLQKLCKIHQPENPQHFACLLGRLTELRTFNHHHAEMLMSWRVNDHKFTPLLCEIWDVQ
protocol.description: FXR-SRC-1 Cofactor Recruitment Assay (time-resolved fluorescence energy transfer)
condition.summary: SRC-1 peptide recruitment, 1 hour at room temperature
quantity.measured: pEC50
# log scale: pEC50 equals minus log10 of the concentration in mol/L

q: Which pEC50 value belongs to O=C(O)c1cc2c(Br)c(N3CCC(N(C(=O)C4CC4)c4ccc(Cl)cc4Cl)CC3)ccc2o1 ?
a: 6.97
